# Tested system: glucocorticoid receptor GR (Homo sapiens, UniProt P04150)
# Sequence (P04150 whole entry): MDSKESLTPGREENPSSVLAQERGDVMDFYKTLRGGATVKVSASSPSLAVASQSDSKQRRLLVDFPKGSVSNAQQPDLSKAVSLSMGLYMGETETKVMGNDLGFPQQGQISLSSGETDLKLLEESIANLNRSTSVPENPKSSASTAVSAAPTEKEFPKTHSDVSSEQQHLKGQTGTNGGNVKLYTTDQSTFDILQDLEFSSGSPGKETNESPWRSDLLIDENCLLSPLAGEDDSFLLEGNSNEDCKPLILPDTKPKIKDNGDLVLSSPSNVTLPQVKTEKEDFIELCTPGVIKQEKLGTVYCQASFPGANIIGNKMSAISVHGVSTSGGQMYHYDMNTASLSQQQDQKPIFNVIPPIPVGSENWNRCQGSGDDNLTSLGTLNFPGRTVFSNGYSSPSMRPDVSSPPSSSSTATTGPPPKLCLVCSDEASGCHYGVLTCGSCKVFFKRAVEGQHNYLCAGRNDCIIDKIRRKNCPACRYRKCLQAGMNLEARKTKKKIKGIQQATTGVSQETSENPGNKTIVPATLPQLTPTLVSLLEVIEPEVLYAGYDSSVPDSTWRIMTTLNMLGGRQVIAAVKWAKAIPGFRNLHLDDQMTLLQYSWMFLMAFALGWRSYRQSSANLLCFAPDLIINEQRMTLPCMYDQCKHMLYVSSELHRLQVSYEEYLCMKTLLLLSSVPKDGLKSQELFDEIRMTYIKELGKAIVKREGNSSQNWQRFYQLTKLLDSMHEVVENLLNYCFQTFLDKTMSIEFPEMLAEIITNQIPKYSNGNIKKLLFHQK
# Protocol: GR gene reporter assay in AZ-GR cells, antagonist mode with dexamethasone
# Measurement setup: in the presence of DEX 0.1 µM, 24 h, read-out: GR activation, antagonist mode IC50
Parameter measured: IC50

Task: Give IC50 for the following compound: Cc1c(OCC(F)(F)F)ccnc1C[S@@+]([O-])c1nc2ccccc2[nH]1
Result: ~100 µM

* * *

# Test system: AZ-GR cells
# Protocol: MTT cytotoxicity test in AZ-GR cells
Record form. Attribute: IC50. Fill in for each entry.
The response must be a number in µM with no trailing unit.

Task: Give IC50 for the following compound: Cc1c(OCC(F)(F)F)ccnc1C[S@+]([O-])c1nc2ccccc2[nH]1
Result: 200

Task: Give IC50 for the following compound: Cc1c(OCC(F)(F)F)ccnc1C[S+]([O-])c1nc2ccccc2[nH]1 (racemic)
Result: 200

* * *

# Tested system: UniProtKB O75469
# Sequence (O75469 whole entry): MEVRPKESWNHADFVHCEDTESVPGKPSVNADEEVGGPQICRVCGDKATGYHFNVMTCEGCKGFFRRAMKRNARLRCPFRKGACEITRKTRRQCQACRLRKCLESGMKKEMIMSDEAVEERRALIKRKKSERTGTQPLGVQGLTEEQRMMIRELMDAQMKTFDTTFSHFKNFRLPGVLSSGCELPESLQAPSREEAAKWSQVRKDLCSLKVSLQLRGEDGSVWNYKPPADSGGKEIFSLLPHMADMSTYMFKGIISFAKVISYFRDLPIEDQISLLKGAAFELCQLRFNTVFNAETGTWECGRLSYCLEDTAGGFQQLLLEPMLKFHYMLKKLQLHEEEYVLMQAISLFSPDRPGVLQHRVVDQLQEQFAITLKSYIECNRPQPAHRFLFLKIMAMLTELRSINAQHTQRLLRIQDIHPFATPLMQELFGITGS
# Protocol: PXR gene reporter assay (p3A4-luc in LS174T cells), agonist mode
Parameter measured: EC50
Kindly report the value followed by its unit.

Task: Give EC50 for the following compound: COc1ccc2nc([S@@+]([O-])Cc3ncc(C)c(OC)c3C)[nH]c2c1 [S-OME, S-omeprazole]
Result: 2 µM

* * *

Record form. Attribute: IC50 at 24 h. Fill in for each entry.
# Protocol: MTT cytotoxicity test in LS174T cells
# Measurement setup: human, LS174T cells

Task: Give IC50 at 24 h for the following molecule: Cc1c(OCC(F)(F)F)ccnc1C[S@@+]([O-])c1nc2ccccc2[nH]1
Result: > 100 µM

Task: Give IC50 at 24 h for the following molecule: COc1ccc2nc([S@@+]([O-])Cc3ncc(C)c(OC)c3C)[nH]c2c1
Result: > 250 µM

* * *

# Protocol: MTT cytotoxicity test in AZ-GR cells
# Measurement setup: human, AZ-GR cells (stably transfected GR gene reporter cell line), cytotoxicity in AZ-GR cells IC50, MTT, 24 h
Parameter measured: IC50 at 24 h
Kindly report the value followed by its unit.

Task: Give IC50 at 24 h for the following compound: COc1ccc2nc([S@@+]([O-])Cc3ncc(C)c(OC)c3C)[nH]c2c1
Result: 214 µM

Task: Give IC50 at 24 h for the following compound: Cc1c(OCC(F)(F)F)ccnc1C[S@@+]([O-])c1nc2ccccc2[nH]1
Result: 184 µM

* * *

# Test system: LS174T cells
# Protocol: MTT cytotoxicity test in LS174T cells
Record form. Attribute: IC50. Fill in for each entry.

Task: Write down measured IC50 (LS174T cells) for this compound. Cc1c(OCC(F)(F)F)ccnc1C[S@+]([O-])c1nc2ccccc2[nH]1 [S-LAN, S-lansoprazole]
Result: > 100 µM

Task: Write down measured IC50 (LS174T cells) for this compound. COc1ccc2nc([S@+]([O-])Cc3ncc(C)c(OC)c3C)[nH]c2c1 [R-OME, R-omeprazole]
Result: > 250 µM

Task: Write down measured IC50 (LS174T cells) for this compound. Cc1c(OCC(F)(F)F)ccnc1C[S+]([O-])c1nc2ccccc2[nH]1 (racemic) [rac-LAN, rac-lansoprazole]
Result: > 100 µM

Task: Write down measured IC50 (LS174T cells) for this compound. COc1ccc2[nH]c([S+]([O-])Cc3ncc(C)c(OC)c3C)nc2c1 (racemic) [rac-OME, rac-omeprazole]
Result: > 250 µM
